Just for reference, patent US20100298141A1 is where these values come from.

System: green foxtail
Assay: Test F preemergence test
Type: in vivo, Setaria viridis
Conditions: 62 g ai/ha, Preemergence; scale 0 to 100
METRIC_NAME: Foxtail, Green plant response rating
Could you respond with only the numeric value?

Incoming: Lab note: green foxtail assay, enter Foxtail, Green plant response rating for Cc1cc[n+]([O-])c(S(=O)(=O)C(Cl)c2c(C(F)(F)F)nn(C)c2Cl)c1 (racemic) here
Outgoing: 20

Incoming: Give Foxtail, Green plant response rating only, for `Cc1cc[n+]([O-])c(S(=O)(=O)Cc2c(C(F)(F)F)nn(C)c2OC(F)F)c1` , using green foxtail data.
Outgoing: 80

Incoming: Find the measured Foxtail, Green plant response rating of `Cc1cc[n+]([O-])c(S(=O)(=O)Cc2c(C(F)(F)F)nn(C)c2OCC(F)(F)F)c1` with green foxtail as test system.
Outgoing: 100

Incoming: Report value only: Foxtail, Green plant response rating, green foxtail, CCn1nc(C(F)(F)F)c(C[S+]([O-])c2cc(C)cc[n+]2[O-])c1OCC(F)(F)F (racemic)
Outgoing: 90

Incoming: Under green foxtail, report Foxtail, Green plant response rating for Cn1nc(C(F)(F)F)c(C[S+]([O-])c2ccc(Cl)c[n+]2[O-])c1OC(F)F (stereo not shown)
Outgoing: 85

Incoming: Report Foxtail, Green plant response rating from green foxtail testing of Cc1cc[n+]([O-])c(S(=O)(=O)C(Cl)c2c(C(F)(F)F)nn(C)c2OCC(F)(F)F)c1 (racemic)
Outgoing: 15

Incoming: Output reported Foxtail, Green plant response rating of the molecule Cn1nc(C(F)(F)F)c(C[S+]([O-])c2ccc(F)c[n+]2[O-])c1OC(F)F (stereo not shown) on green foxtail.
Outgoing: 95

###

Field: Plant response rating, Soybean. Provide a value for each of the compounds that follow.
Test system: soybean
Experiment: Test C pre-/postemergence test
Type: in vivo, Glycine max
Settings: Preemergence, 31 g ai/ha; scale 0 to 100 (0 no effect, 100 complete control)
Give your answer as a number; write no unit.

Incoming: Provide measured Plant response rating, Soybean value, entry: CC(Oc1c(CS(=O)(=O)c2cccc[n+]2[O-])c(C(F)(F)F)nn1C)C(F)(F)F (centres unmarked)
Outgoing: 0

Incoming: In one line, give reported Plant response rating, Soybean of the entry `Cn1nc(C(F)(F)F)c(CS(=O)(=O)c2ccc(Cl)c[n+]2[O-])c1Cl` .
Outgoing: 0

Incoming: Give me measured Plant response rating, Soybean, please, for this compound: [O-][n+]1cc(Cl)ccc1[S+]([O-])Cc1c(C(F)(F)F)nn(CC(F)(F)F)c1Cl (centres unmarked)
Outgoing: 0

Incoming: Give the reported Plant response rating, Soybean for this compound. `Cc1cc[n+]([O-])c(S(=O)(=O)Cc2c(C(F)(F)F)nn(C)c2Cl)c1`
Outgoing: 0

Incoming: Identify Plant response rating, Soybean associated with the compound Cn1nc(C(F)(F)F)c(C[S+]([O-])c2ccc(Cl)c[n+]2[O-])c1OCC(F)F (centres unmarked)
Outgoing: 100

Incoming: Quick one: give measured Plant response rating, Soybean for Cn1nc(C(F)(F)F)c(C[S+]([O-])c2cc(F)cc[n+]2[O-])c1Cl (racemic)
Outgoing: 0

Incoming: Tell me its Plant response rating, Soybean given CC(Oc1c(C[S+]([O-])c2ccc(Cl)c[n+]2[O-])c(C(F)(F)F)nn1C)C(F)(F)F (centres unmarked) as the entry.
Outgoing: 65

Incoming: # return recorded Plant response rating, Soybean for input CCc1cc[n+]([O-])c([S+]([O-])Cc2c(C(F)(F)F)nn(C)c2OC(F)F)c1 (centres unmarked)
Outgoing: 0

###

Give measured Plant response rating, Pigweed for each item. Keep answers brief.
Test system: redroot pigweed
Test: Test A pre-/postemergence greenhouse test
Type: in vivo, Amaranthus retroflexus
Conditions: Preemergence, 500 g ai/ha; 0 to 100 scale where 0 is no effect and 100 is complete control
Source text: Seeds of barnyardgrass (Echinochloa crus-galli), crabgrass (Digitaria sanguinalis), giant foxtail (Setaria faberi), morningglory (Ipomoea spp.), redroot pigweed (Amaranthus retroflexus), velvetleaf (Abutilon theophrasti), wheat (Triticum aestivum), and corn (Zea mays) were planted into a blend of loam soil and sand and treated preemergence with a directed soil spray using test compounds formulated in a non-phytotoxic solvent mixture which included a surfactant. […]
# answer = number (no unit)

Incoming: Return value of Plant response rating, Pigweed for input Cn1nc(C(F)(F)F)c(C[S+]([O-])c2ccc(F)c[n+]2[O-])c1OCC(F)(F)F (stereo not shown) , no commentary.
Outgoing: 100

Incoming: Answer with reported Plant response rating, Pigweed of Cn1nc(C(F)(F)C(F)(F)F)c(C[S+]([O-])c2cccc[n+]2[O-])c1OCC(F)(F)F (stereo not shown)
Outgoing: 100

Incoming: Report measured Plant response rating, Pigweed; entry is Cn1nc(C(F)(F)F)c(C[S+]([O-])c2ccc(Cl)c[n+]2[O-])c1Cl (racemic)
Outgoing: 100

Incoming: Give the value of Plant response rating, Pigweed reported for the following: CC(c1c(C(F)(F)F)nn(C)c1OC(F)F)S(=O)(=O)c1cc(C(C)(C)C)cc[n+]1[O-] (racemic)
Outgoing: 100

Incoming: Name the recorded Plant response rating, Pigweed of the item `Cc1cc[n+]([O-])c(S(=O)(=O)Cc2c(C(F)(F)F)nn(C)c2Cl)c1` in your answer.
Outgoing: 100

Incoming: Give Plant response rating, Pigweed for CCn1nc(C(F)(F)F)c(C[S+]([O-])c2cc(C)cc[n+]2[O-])c1OCC(F)(F)F (racemic)
Outgoing: 100

Incoming: // fetch Plant response rating, Pigweed given entry `Cn1nc(C(F)(F)F)c(CS(=O)(=O)c2ccc(Cl)c[n+]2[O-])c1OCC(F)F`
Outgoing: 100

Incoming: Report measured Plant response rating, Pigweed; entry is Cn1nc(C(F)(F)F)c(C[S+]([O-])c2cc(F)cc[n+]2[O-])c1Cl (racemic)
Outgoing: 100

Incoming: Please report Plant response rating, Pigweed for the following compound: CC(c1c(C(F)(F)F)nn(C)c1Cl)[S+]([O-])c1cccc[n+]1[O-] (mixture of isomers)
Outgoing: 0

Incoming: Identify the reported Plant response rating, Pigweed for the following entry. Cc1cc[n+]([O-])c([S+]([O-])Cc2c(C(F)(F)F)nn(C)c2OC(C)C(F)(F)F)c1 (stereo not shown)
Outgoing: 100

Incoming: Let me know recorded Plant response rating, Pigweed for `Cn1nc(OC(F)F)c(CS(=O)(=O)c2cccc[n+]2[O-])c1C(F)(F)F` , thanks.
Outgoing: 90

Incoming: Please give measured Plant response rating, Pigweed of the following entry: CC(c1c(C(F)(F)F)nn(C)c1Cl)S(=O)(=O)c1ccc(Cl)c[n+]1[O-] (racemic)
Outgoing: 100

Incoming: For the compound `Cn1nc(C(F)(F)F)c(CS(=O)(=O)c2cc(F)cc[n+]2[O-])c1Cl` , give its reported Plant response rating, Pigweed.
Outgoing: 0

Incoming: Provide one value: measured Plant response rating, Pigweed of Cc1cc[n+]([O-])c([S+]([O-])Cc2c(C(F)(F)C(F)(F)F)nn(C)c2OCC(F)(F)F)c1 (stereo not shown)
Outgoing: 100

Incoming: Supply recorded Plant response rating, Pigweed for Cn1nc(C(F)(F)F)c(C[S+]([O-])c2cccc[n+]2[O-])c1Cl (stereo not shown) here.
Outgoing: 100

Incoming: Return value of Plant response rating, Pigweed for input CC(Oc1c(C[S+]([O-])c2cccc[n+]2[O-])c(C(F)(F)F)nn1C)C(F)(F)F (stereo not shown) , no commentary.
Outgoing: 100

###

Test system: itchgrass
Experiment: Test F preemergence test
Assay type: in vivo, Rottboellia cochinchinensis
Conditions: 16 g ai/ha, preemergence; scale 0 to 100
METRIC_NAME: Plant response rating, Itchgrass
Give the figure by itself; no unit, no explanation.

Incoming: Quote itchgrass Plant response rating, Itchgrass for entry Cc1cc[n+]([O-])c(S(=O)(=O)C(Cl)c2c(C(F)(F)F)nn(C)c2OCC(F)(F)F)c1 (racemic) [Compound 37] .
Outgoing: 0

Incoming: Give Plant response rating, Itchgrass; test system itchgrass; compound Cn1nc(OC(F)F)c(CS(=O)(=O)c2cccc[n+]2[O-])c1C(F)(F)F [Compound 80]
Outgoing: 10

Incoming: Under itchgrass, report Plant response rating, Itchgrass for CCn1nc(C(F)(F)F)c(CS(=O)(=O)c2cccc[n+]2[O-])c1OCC(F)(F)F [Compound 63]
Outgoing: 10

Incoming: // output Plant response rating, Itchgrass; input CC(c1c(C(F)(F)F)nn(C)c1OCC(F)(F)F)S(=O)(=O)c1cccc[n+]1[O-] (racemic) [Compound 33] ; system itchgrass
Outgoing: 25

Incoming: Quote Plant response rating, Itchgrass with test system itchgrass for Cc1cc[n+]([O-])c(S(=O)(=O)Cc2c(C(F)(F)F)nn(C)c2OCC(F)(F)F)c1 [Compound 31]
Outgoing: 10

Incoming: State, for itchgrass, measured Plant response rating, Itchgrass of the compound listed here: CC(Oc1c(C[S+]([O-])c2cccc[n+]2[O-])c(C(F)(F)F)nn1C)C(F)(F)F (stereo not drawn) [Compound 77]
Outgoing: 0

Incoming: Please indicate recorded Plant response rating, Itchgrass of CCn1nc(C(F)(F)F)c(C[S+]([O-])c2cc(C)cc[n+]2[O-])c1OCC(F)(F)F (racemic) [Compound 66] measured with itchgrass.
Outgoing: 0

Incoming: Enter Plant response rating, Itchgrass (test system itchgrass) for CCn1nc(C(F)(F)F)c(CS(=O)(=O)c2cc(C)cc[n+]2[O-])c1OCC(F)(F)F [Compound 64]
Outgoing: 0

Incoming: Fetch value of Plant response rating, Itchgrass on itchgrass for Cn1nc(C(F)(F)C(F)(F)F)c(C[S+]([O-])c2cccc[n+]2[O-])c1OCC(F)(F)F (stereo not drawn) [Compound 79] .
Outgoing: 0
